Recorded protein stability index for the following variants
B1: ZNF649 (parent)
chain: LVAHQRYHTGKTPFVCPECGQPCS

Variants of: B1
Test: protein stability index of a GFP-peptide fusion (GPS, HEK-293T) (PSI 1-6); higher = more stable;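 also: lentivirally expressed fusions sorted by FACS into six bins by GFP to DsRed ratio, PSI derived from sequencing read proportions per bin multiplied by bin number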
Conditions: c terminus: a fixed tail appended
The response must contain the number and no unit.

Answered examples (2):
C19S
3.15
Q21T
3.24

Briefly, protein stability index measured for H4N : 3.33

Briefly, protein stability index measured for P17D : 3.35

Briefly, protein stability index measured for Q5N : 3.15

Briefly, protein stability index measured for V15C : 2.88

Briefly, protein stability index measured for C23I : 2.98

Briefly, protein stability index measured for T12C : 3.01

Briefly, protein stability index measured for P13F : 2.8

Briefly, protein stability index measured for R6Q : 3.6

Briefly, protein stability index measured for K11E : 3.67

Briefly, protein stability index measured for V15K : 2.42
